- Test system: KARPAS-299 (T-Cell Non-Hodgkin's Lymphoma);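 also: after 72 h of two-drug dosing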
- measurement notes: Bliss excess, mean over the matrix (fraction); higher = more synergy

compound	Bliss excess
CN(CCO)CC[C@H](CSc1ccccc1)Nc1ccc(S(=O)(=O)NC(=O)c2ccc(N3CCC([C@@H](O)c4ccccc4-c4ccc(Cl)cc4)CC3)cc2)cc1S(=O)(=O)C(F)(F)F [AZD4320] + C=CCn1c(=O)c2cnc(Nc3ccc(N4CCN(C)CC4)cc3)nc2n1-c1cccc(C(C)(C)O)n1 [AZD1775] (first compound max 1 µM, partner max 1 µM)	0.0477
CN(CCO)CC[C@H](CSc1ccccc1)Nc1ccc(S(=O)(=O)NC(=O)c2ccc(N3CCC([C@@H](O)c4ccccc4-c4ccc(Cl)cc4)CC3)cc2)cc1S(=O)(=O)C(F)(F)F [AZD4320] + CN(C)CCCOc1ccc(-c2ccc3ncc4c(c3c2)n(C2CCOCC2)c(=O)n4C)cn1 [AZD0156] (first compound max 1 µM, 7x7, partner max 1 µM)	0.0129
Cc1cc2ncnn2cc1Nc1ncc2c(n1)n(C1CCOCC1)c(=O)n2C [AZD7648] + CN(C)CCCOc1ccc(-c2ccc3ncc4c(c3c2)n(C2CCOCC2)c(=O)n4C)cn1 [AZD0156] (first compound max 10 µM, 7x7, partner max 1 µM)	0.0477
